# System Under Test: recombinant USP30 (amino acids 57-517 of the human sequence) (Homo sapiens (Human))
# Experiment: In vitro USP30 biochemical assay (Ubiquitin-Rhodamine)
# Run Conditions: USP30 IC50 μM (avg), Ubiquitin-Rhodamine substrate 25 nM, 1.5 nM recombinant USP30
Below, each entry is listed with its recorded IC50.

Some molecules with recorded IC50:
Molecule	IC50
CCNS(=O)(=O)c1ccc(NC(=O)[C@H](Cc2ccccc2)NC(=O)c2ccc(F)cc2)c(F)c1 [Compound I-157]	0.05 to 1 µM
O=C(N[C@@H](Cc1ccccc1)C(=O)Nc1ccc(S(=O)(=O)NC23CC(C2)C3)cc1)c1cccnc1 [Compound I-79]	1 to 10 µM
O=C(N[C@@H](Cc1ccccc1)C(=O)Nc1ccc(S(=O)(=O)NC2CCCC2)cc1)c1cccnc1 [Compound I-80]	0.05 to 1 µM

Now for another entry.
Exercise: Consider the molecule O=C(N[C@@H](Cc1ccccc1)C(=O)Nc1ccc(S(=O)(=O)NCCO)cn1)c1ccc(F)cc1 [Compound I-121] and give its measured IC50.
Key: 0.05 to 1 µM

----------
# System Under Test: USP30 (Homo sapiens (Human))
# Experiment: Dundee MALDI-TOF mass spectrometry assay (IC50)
# Format: biochemical
# Run Conditions: USP30 25 ng/μl, K48-linked diubiquitin 5.6 μM, avg, read-out: Dundee IC50 μM (avg in vitro MS assay)
Recorded Metric: IC50

Some compounds with recorded IC50:
Compound	IC50
O=C(N[C@@H](Cc1ccccc1)C(=O)Nc1ccc(S(=O)(=O)NC2CCCCC2)cc1)c1ccc(F)cc1	0.05 to 1 µM
O=C(N[C@@H](Cc1ccccc1)C(=O)Nc1ccc(S(=O)(=O)NCCN2CCOCC2)nc1)c1ccc(F)cc1	0.05 to 1 µM
O=C(N[C@@H](Cc1ccccc1)C(=O)Nc1ccc(S(=O)(=O)NC2CCOCC2)nc1)c1ccc(F)cc1	< 0.05 µM
CN(C)CCNS(=O)(=O)c1ccc(NC(=O)[C@H](Cc2ccccc2)NC(=O)c2ccc(F)cc2)cc1	1 to 10 µM
CCNS(=O)(=O)c1ccc(NC(=O)[C@H](Cc2ccccc2)NC(=O)c2ccc(F)cc2)cc1OC	0.05 to 1 µM
COCC(C)(C)NS(=O)(=O)c1ccc(NC(=O)[C@H](Cc2ccccc2)NC(=O)c2ccc(F)cc2)cn1	0.05 to 1 µM

Exercise: Consider the compound CC(C)(C)NS(=O)(=O)c1ccc(NC(=O)C2(NC(=O)c3ccccc3)CCc3ccccc3C2)cc1 (stereo not shown) and give its measured IC50.
Key: > 1 µM

----------
Below, each entry is listed with its recorded IC50.
# System Under Test: recombinant USP30 (amino acids 57-517 of the human sequence) (Homo sapiens (Human), UniProt Q70CQ3)
# Sequence (Q70CQ3 57-517): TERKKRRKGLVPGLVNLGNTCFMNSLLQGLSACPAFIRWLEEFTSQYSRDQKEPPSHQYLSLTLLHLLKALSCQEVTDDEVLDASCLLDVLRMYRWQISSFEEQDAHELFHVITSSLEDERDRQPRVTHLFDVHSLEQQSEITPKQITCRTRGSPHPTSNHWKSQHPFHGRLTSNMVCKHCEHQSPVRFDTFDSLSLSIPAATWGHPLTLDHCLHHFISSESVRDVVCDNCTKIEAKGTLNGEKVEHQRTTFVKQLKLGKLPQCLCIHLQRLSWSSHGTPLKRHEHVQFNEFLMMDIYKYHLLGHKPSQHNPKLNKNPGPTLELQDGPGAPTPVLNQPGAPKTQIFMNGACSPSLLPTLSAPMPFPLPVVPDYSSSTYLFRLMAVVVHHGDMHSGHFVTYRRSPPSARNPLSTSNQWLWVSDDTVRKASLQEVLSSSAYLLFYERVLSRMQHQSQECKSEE
# Experiment: In vitro USP30 biochemical assay (Ubiquitin-Rhodamine)
# Run Conditions: read-out: USP30 IC50 μM (avg), Ubiquitin-Rhodamine substrate 25 nM, 1.5 nM recombinant USP30

Some molecules with recorded IC50:
Molecule	IC50
CC(C)(CN1CCOCC1)NS(=O)(=O)c1ccc(NC(=O)[C@H](Cc2ccccc2)NC(=O)c2ccc(F)cc2)cc1	< 0.05 µM
CC(C)(C)NS(=O)(=O)c1ccc(NC(=O)C2Cc3ccncc3N2C(=O)c2ccc(F)cc2)cc1 (stereo not shown)	> 10 µM
CC(C)(C)NS(=O)(=O)c1ccc(NC(=O)[C@H](Cc2ccccc2)NC(=O)C2COC2)cc1	> 10 µM
CC(C)(C)NS(=O)(=O)c1ccc(N2Cc3ccccc3CC(NC(=O)c3ccc(F)cc3)C2=O)cc1 (stereo not shown)	> 10 µM
CN(C(=O)c1ccc(F)cc1)[C@@H](Cc1cccnc1)C(=O)Nc1ccc(S(=O)(=O)NC2COC2)cc1	> 10 µM
CC(C)(C)NS(=O)(=O)c1ccc(NC(=O)[C@H](Cc2ccccc2)NC(=O)c2ccc(F)cc2)cc1C#N	< 0.05 µM

Now for another entry.
Exercise: Consider the molecule CC(C)(C)NS(=O)(=O)c1ccc(NC(=O)C2Cc3cnccc3N2C(=O)c2ccc(F)cc2)cc1 (stereo not shown) and give its measured IC50.
Key: > 10 µM

----------
# System Under Test: USP30 (Homo sapiens (Human), UniProt Q70CQ3)
# Sequence (Q70CQ3 whole entry): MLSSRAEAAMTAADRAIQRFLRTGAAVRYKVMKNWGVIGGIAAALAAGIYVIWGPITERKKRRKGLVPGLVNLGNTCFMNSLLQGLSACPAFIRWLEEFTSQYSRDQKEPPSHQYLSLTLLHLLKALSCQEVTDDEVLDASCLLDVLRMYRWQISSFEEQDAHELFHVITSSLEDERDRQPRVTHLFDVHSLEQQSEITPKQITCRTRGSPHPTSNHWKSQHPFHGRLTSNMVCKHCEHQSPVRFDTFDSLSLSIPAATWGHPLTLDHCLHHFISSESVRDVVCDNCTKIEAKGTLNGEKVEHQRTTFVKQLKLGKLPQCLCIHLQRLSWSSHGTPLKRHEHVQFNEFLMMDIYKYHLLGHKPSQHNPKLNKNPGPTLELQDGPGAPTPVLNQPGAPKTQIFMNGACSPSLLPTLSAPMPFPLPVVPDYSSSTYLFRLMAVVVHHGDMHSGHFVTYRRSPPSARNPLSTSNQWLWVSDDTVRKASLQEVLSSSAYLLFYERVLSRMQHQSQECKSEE
# Experiment: Dundee MALDI-TOF mass spectrometry assay (IC50)
# Format: biochemical
# Run Conditions: USP30 25 ng/μl, K48-linked diubiquitin 5.6 μM, avg, read-out: Dundee IC50 μM (avg in vitro MS assay)
Below, each entry is listed with its recorded IC50.

Compound	Recorded Value
O=C(N[C@H](Cc1ccccc1)C(=O)Nc1ccc(S(=O)(=O)NC23CC(C2)C3)cc1)c1ccc(F)cc1	> 10 µM
CC(C)(C)N[S+]([O-])c1ccc(NC(=O)[C@H](Cc2ccccc2)NC(=O)c2ccc(F)cc2)cc1 (stereo partly drawn)	0.05 to 1 µM
CC(C)(C)CS(=O)(=O)c1ccc(NC(=O)[C@H](Cc2ccccc2)NC(=O)c2ccc(F)cc2)cc1	0.05 to 1 µM
O=C(NC1(C(=O)Nc2ccc(S(=O)(=O)NC3COC3)cc2)Cc2ccccc2C1)c1ccc(F)cc1	> 10 µM
CC(C)(C)NS(=O)(=O)c1ccc(OC[C@H](Cc2ccccc2)NC(=O)c2ccc(F)cc2)cc1	> 1 µM
CN(C(=O)c1ccc(F)cc1)[C@@H](Cc1cccnc1)C(=O)Nc1ccc(S(=O)(=O)NC(C)(C)C)cc1	0.05 to 1 µM

Exercise: Consider the compound COc1cc(NC(=O)[C@H](Cc2ccccc2)NC(=O)c2ccc(F)cc2)ccc1S(=O)(=O)NC1COC1 and give its measured IC50.
Key: < 0.05 µM

Exercise: Consider the compound CN(C(=O)[C@H](Cc1ccccc1)NC(=O)c1ccc(F)cc1)c1ccc(S(=O)(=O)NC(C)(C)C)cc1 and give its measured IC50.
Key: > 1 µM

Exercise: Consider the compound O=C(N[C@@H](Cc1ccccc1)C(=O)Nc1ccc(S(=O)(=O)NC2CCOCC2)cc1)c1ccc(F)cc1 and give its measured IC50.
Key: < 0.05 µM

----------
# System Under Test: UniProtKB Q70CQ3
# Experiment: Dundee MALDI-TOF mass spectrometry assay (IC50)
# Assay type: biochemical
# Run Conditions: USP30 25 ng/μl, K48-linked diubiquitin 5.6 μM, avg, read-out: Dundee IC50 μM (avg in vitro MS assay)
# Procedure: Compounds were tested in a MALDI-TOF assay based on the paper by Ritorto et al. (Ritorto et al. Screening of DUB activity and specificity by MALDI-TOF mass spectrometry. Nat. […] USP30 (25 ng/μl) tested against K48-linked diubiquitin (5.6 μM). USP30 was diluted in a buffer containing 40 mM Tris, 0.01% BSA, 1 mM DTT and K48 in 40 mM Tris, 0.01% BSA. […] Then 250 nl of these solutions were spotted onto an MTP AnchorChip 1,536 TF and this is analysed on the Bruker rapifleX MALDI-TOF.
Below, each entry is listed with its recorded IC50.

Some compounds with recorded IC50:
Compound	IC50
C[C@H](NS(=O)(=O)c1ccc(NC(=O)[C@H](Cc2ccccc2)NC(=O)c2ccc(F)cc2)cc1)C(F)(F)F [Compound I-13]	< 0.05 µM
O=C(N[C@@H](Cc1ccccc1)C(=O)Nc1ccc(S(=O)(=O)NC2COC2)cc1)c1ccc(F)cc1 [Compound I-64]	< 0.05 µM
C[C@H](NS(=O)(=O)c1ccc(NC(=O)[C@H](Cc2ccccc2)NC(=O)c2ccc(F)cc2)cc1)C1CC1 [Compound I-27]	< 0.05 µM

Exercise: Consider the compound O=C(N[C@@H](Cc1ccccc1)C(=O)Nc1ccc(S(=O)(=O)NCCO)cn1)c1ccc(F)cc1 [Compound I-121] and give its measured IC50.
Key: 0.05 to 1 µM

Exercise: Consider the compound O=C(N[C@@H](Cc1ccccc1)C(=O)Nc1ccc(S(=O)(=O)NC2CCC2)cc1)c1cccnc1 [Compound I-81] and give its measured IC50.
Key: 0.05 to 1 µM

Exercise: Consider the compound O=C(N[C@@H](Cc1ccccn1)C(=O)Nc1ccc(S(=O)(=O)NC23CC(C2)C3)cc1)c1ccc(F)cc1 [Compound I-141] and give its measured IC50.
Key: 0.05 to 1 µM

----------
Below, each entry is listed with its recorded activity at 1 µM.
# System Under Test: USP30 (Homo sapiens (Human), UniProt Q70CQ3)
# Experiment: Dundee MALDI-TOF mass spectrometry assay (% DUB activity remaining at 1 μM)
# Assay type: biochemical
# Run Conditions: % DUB activity remaining at compound concentration of 1 μM; avg; read-out: Dundee % Activity at 1 μM (avg in vitro MS assay)

Some compounds with recorded activity at 1 µM:
Compound	activity at 1 µM
CC(C)(C)NS(=O)(=O)c1ccc(NC(=O)C2Cc3ccccc3CN2C(=O)c2ccc(F)cc2)cc1 (stereo not drawn)	0 to 25%
CN(C(=O)c1ccc(F)cc1)[C@@H](Cc1ccccc1)C(=O)Nc1ccc(S(=O)(=O)NC(C)(C)C)cc1	0 to 25%
CC(C)(C)NS(=O)(=O)c1ccc(NC(=O)[C@H](Cc2ccccc2)OCc2ccc(F)cc2)cc1	> 75%
CC(C)(C)NS(=O)(=O)c1ccc(NC(=O)C2Cc3ncccc3CN2C(=O)c2ccc(F)cc2)cc1 (stereo not drawn)	> 75%

Exercise: Consider the compound CC(C)(C)N[S+]([O-])c1ccc(NC(=O)[C@H](Cc2ccccc2)NC(=O)c2ccc(F)cc2)cc1 (stereo partly drawn) and give its measured activity at 1 µM.
Key: 25 to 50%

Exercise: Consider the compound CCNS(=O)(=O)c1ccc(NC(=O)[C@H](Cc2ccccc2)N(C)C(=O)c2ccc(F)cc2)cc1 and give its measured activity at 1 µM.
Key: > 75%

Exercise: Consider the compound CC(C)(C)NS(=O)(=O)c1ccc(NC[C@@H](O)[C@H](Cc2ccccc2)NC(=O)c2ccc(F)cc2)cc1 and give its measured activity at 1 µM.
Key: > 75%

Exercise: Consider the compound CN(C(=O)[C@H](Cc1ccccc1)NC(=O)c1ccc(F)cc1)c1ccc(S(=O)(=O)NC(C)(C)C)cc1 and give its measured activity at 1 µM.
Key: > 75%

Exercise: Consider the compound CC(C)(C)NC(c1ccc(NC(=O)[C@H](Cc2ccccc2)NC(=O)c2ccc(F)cc2)cc1)C(F)(F)F (stereo partly drawn) and give its measured activity at 1 µM.
Key: 50 to 75%

Exercise: Consider the compound O=C(N[C@@H](Cc1ccccc1)C(=O)Nc1ccc(S(=O)(=O)NC2COC2)cc1)c1ccc(F)cc1 and give its measured activity at 1 µM.
Key: 0 to 25%

Exercise: Consider the compound CC(C)(C)NS(=O)(=O)c1ccc(NC[C@H](O)[C@H](Cc2ccccc2)NC(=O)c2ccc(F)cc2)cc1 and give its measured activity at 1 µM.
Key: 25 to 50%
